// % Inhibition (Example 10) @ 1 μM lookup, one value per entry
# TESTED TARGET: β-secretase (BACE) (Homo sapiens)
# Construct: purchased Panvera
# ASSAY SUMMARY: In Vitro BACE FS1 % Inhibition Assay (Example 10)
# Type: biochemical
# CONDITIONS: 1 μM compound; FS1 substrate; values below about 25% (including negative) within noise

MOLECULE	UNIT	% Inhibition (Example 10) @ 1 μM
Nc1nc2ccc(Oc3ccccc3)cc2cc1CCC(=O)NCC1CCCCC1	%	5
Nc1nc2ccc(Oc3ccccc3)cc2cc1CCCC(=O)NC12CC3CC(CC(C3)C1)C2	%	20
COCCNC(=O)CCc1cc2cc(Oc3ccccc3)ccc2nc1N	%	41
Nc1nc2ccc(Oc3ccccc3)cc2cc1C(CCC(=O)NC12CC3CC(CC(C3)C1)C2)C1CCCCC1 (stereo not shown)	%	58
Nc1nc2ccc(Oc3ccccc3)cc2cc1CCC(=O)N[C@H](CO)CC1CCCCC1	%	−27
Nc1nc2ccc(Oc3ccccc3)cc2cc1CCC(=O)NC12CC3CC(CC(C3)C1)C2	%	78
Cc1ccccc1N1CCN(C(=O)CCc2cc3cc(Oc4ccccc4)ccc3nc2N)CC1	%	−8
Nc1nc2ccc(Oc3ccccc3)cc2cc1C(CCC(=O)N[C@H]1CC[C@H](C(=O)O)CC1)C1CCCCC1 (stereo partly shown)	%	−19
Nc1nc2ccc(Oc3ccccc3)cc2cc1C(CCC(=O)N[C@H]1CC[C@@H](C(=O)O)CC1)C1CCCCC1 (stereo partly shown)	%	−1
COC(=O)CCCc1cc2cc(Oc3ccccc3)ccc2nc1N	%	21
C=CCC(c1cc2cc(Oc3ccccc3)ccc2nc1N)C1CCCCC1 (stereo not shown)	%	19
Nc1nc2ccc(Oc3ccccc3)cc2cc1CCNC(=O)C1CCCCC1	%	9
Nc1nc2ccc(Oc3ccccc3)cc2cc1C(CCC(=O)NC12CC3CC(CC(C3)C1)C2)C1CCOCC1 (stereo not shown)	%	103

====

# TESTED TARGET: β-secretase (BACE) (Homo sapiens)
# Construct: purchased Panvera
# ASSAY SUMMARY: In Vitro BACE Assay, Ki (Example 11)
# Format: biochemical
# CONDITIONS: Ki (μM) (Example 11), FS1 substrate 50 μM, Km 24 μM
Cut-off 0.4 µM on Ki: below means fulfilled, at or above means not fulfilled.

COMPOUND	GROUP
CN(C(=O)CCC(c1cc2cc(Oc3ccccc3)ccc2nc1N)C1CCCCC1)C1CCCCC1 (centres unmarked)	not fulfilled
CC(C)=CCCC(C)=CCNC(=O)CCc1cc2cc(Oc3ccccc3)ccc2nc1N	not fulfilled
CC1CCCC(NC(=O)CCc2cc3cc(Oc4ccccc4)ccc3nc2N)C1 (centres unmarked)	not fulfilled
CN(C(=O)CCC1Cc2cc(Oc3ccccc3)ccc2N=C1N)C1CCCCC1 (centres unmarked)	fulfilled
CN(C(=O)CC[C@H](c1cc2cc(Oc3ccccc3)ccc2nc1N)C1CCOCC1)C1CCCCC1	fulfilled

====

# TESTED TARGET: β-secretase (BACE) (Homo sapiens, UniProt P56817)
# Construct: purchased Panvera
# Sequence (P56817 46-501): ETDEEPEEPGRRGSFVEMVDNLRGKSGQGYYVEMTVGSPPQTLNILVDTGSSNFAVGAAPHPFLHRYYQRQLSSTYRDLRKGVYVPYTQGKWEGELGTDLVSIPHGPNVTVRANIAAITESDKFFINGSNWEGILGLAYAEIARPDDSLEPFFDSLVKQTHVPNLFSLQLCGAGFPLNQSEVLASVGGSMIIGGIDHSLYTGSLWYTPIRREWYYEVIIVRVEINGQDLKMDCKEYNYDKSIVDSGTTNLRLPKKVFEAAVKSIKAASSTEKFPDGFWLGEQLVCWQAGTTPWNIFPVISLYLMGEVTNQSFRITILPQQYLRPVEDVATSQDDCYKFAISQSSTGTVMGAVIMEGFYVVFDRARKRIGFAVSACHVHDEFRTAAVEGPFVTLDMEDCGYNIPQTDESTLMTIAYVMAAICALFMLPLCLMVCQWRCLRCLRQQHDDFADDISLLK
# ASSAY SUMMARY: In Vitro BACE FS1 % Inhibition Assay (Example 10)
# Assay type: biochemical
# CONDITIONS: 3 μM compound; FS1 substrate; values below about 25% (including negative) within noise
// % Inhibition (Example 10) @ 3 μM lookup, one value per entry
MEASURED PARAMETER: % Inhibition (Example 10) @ 3 μM (%)

MOLECULE	READOUT VALUE
CCN(CC)CCNC(=O)CCc1cc2cc(Oc3ccccc3)ccc2nc1N	−0.3
COC(=O)CCCc1cc2cc(Oc3ccccc3)ccc2nc1N	18
C=CCC(c1cc2cc(Oc3ccccc3)ccc2nc1N)C1CCCCC1 (stereo not shown)	36
Nc1nc2ccc(Oc3ccccc3)cc2cc1C(CCC(=O)N[C@H]1CC[C@H](C(=O)O)CC1)C1CCCCC1 (stereo partly shown)	−3
Nc1nc2ccc(Oc3ccccc3)cc2cc1CCC(=O)N[C@H](CO)CC1CCCCC1	−15
Nc1nc2ccc(Oc3ccccc3)cc2cc1CCC(=O)NC12CC3CC(CC(C3)C1)C2	107
CCCCNC(=O)CCc1cc2cc(Oc3ccccc3)ccc2nc1N	19
Nc1nc2ccc(Oc3ccccc3)cc2cc1CCCC(=O)NC12CC3CC(CC(C3)C1)C2	46
Nc1nc2ccc(Oc3ccccc3)cc2cc1C(CCC(=O)NC12CC3CC(CC(C3)C1)C2)C1CCCCC1 (stereo not shown)	78
Nc1nc2ccc(Oc3ccccc3)cc2cc1C(CCC(=O)N[C@H]1CC[C@@H](C(=O)O)CC1)C1CCCCC1 (stereo partly shown)	10
Nc1nc2ccc(Oc3ccccc3)cc2cc1CCC(=O)NCC1CCCCC1	81
Nc1nc2ccc(Oc3ccccc3)cc2cc1C(CCC(=O)NC12CC3CC(CC(C3)C1)C2)C1CCOCC1 (stereo not shown)	132
CN(C(=O)CCCc1cc2cc(Oc3ccccc3)ccc2nc1N)C1CCCCC1	36
COC(=O)[C@H]1CC[C@H](NC(=O)CCC(c2cc3cc(Oc4ccccc4)ccc3nc2N)C2CCCCC2)CC1 (stereo partly shown)	34
COCCNC(=O)CCc1cc2cc(Oc3ccccc3)ccc2nc1N	37
Cc1ccccc1N1CCN(C(=O)CCc2cc3cc(Oc4ccccc4)ccc3nc2N)CC1	17
COC(=O)[C@H]1CC[C@@H](NC(=O)CCC(c2cc3cc(Oc4ccccc4)ccc3nc2N)C2CCCCC2)CC1 (stereo partly shown)	24
Nc1nc2ccc(Oc3ccccc3)cc2cc1CCC(=O)N1CCN(c2cccc(F)c2)CC1	16
Nc1nc2ccc(Oc3ccccc3)cc2cc1CCNC(=O)C1CCCCC1	42
